measurement-name: melting point

Answered cases to consult:
{"molecule": "COc1ccc(-c2nc(N)ncc2-c2ccc(=O)n(C(C)C)n2)cc1", "melting point": "216 °C"}
{"molecule": "COC(=O)C1CCC2C3CCC4CC(O)CCC4(C)C3C(NC3CCCC3)CC12C (centres undefined)", "melting point": "143 to 145 °C"}
{"molecule": "COC(=O)C1CN(C(=O)c2ccccc2-n2cccn2)c2ccc(C)cc2CN1S(=O)(=O)c1ccc(OC)cc1 (centres undefined)", "melting point": "240 to 242 °C"}
{"molecule": "CCn1nc(OCCCc2ccc(OCCOC)cc2OCc2ccc(C(F)(F)F)cc2)cc1CCC(=O)O", "melting point": "112 to 113 °C"}
{"molecule": "COc1cc(CNC(=S)NC(COC(=O)C(C)(C)C)Cc2ccc(C)c(C)c2)ccc1OCCN (centres undefined)", "melting point": "62 to 63 °C"}

Task: Entry `COC(=O)c1ccc(N2CCC(N(C)Cc3ccccc3)CC2)cc1` : reported melting point = ?
Output: 103 to 104 °C

Task: Look up melting point for this molecule: `CCc1cc(-c2ccccc2)nn1-c1ccc([N+](=O)[O-])cc1`
Output: 112 to 113 °C

* * *

Below, each of the compounds is paired with its reported melting point value.

{"compound": "CC1(C)[C@@H](C=C(F)F)[C@@H]1C(=O)OCc1c(F)c(F)c(F)c(-c2ccccc2)c1F (relative stereo)", "measurement-name": "melting point", "test-value": "69 to 72 °C"}

Task: Would you mind telling me what melting point value was observed for `CCN1C(=O)Cc2cc3c(cc21)C(=O)c1ccccc1CO3` ?
Output: 186 to 188 °C

Task: // lookup melting point for O=C1Nc2ccccc2C1c1cc(Cl)ccc1O (stereo not given)
Output: 256 to 258 °C

* * *

Recorded melting point, one value per entry.
Numeric answer only, unit °C assumed.

{"smiles": "C1=C(c2cccc(CNCCOc3cccc4c3OCC4)c2)CCC1", "measurement-name": "melting point", "unit": "°C", "test-value": 118}

Now turn to the next compound.
Task: Query (compound): `Cc1c(Cl)cccc1S(=O)(=O)Nc1nc(CC(=O)N(C)C)cs1` ; field requested: melting point
Output: 84

* * *

Listed compounds paired with reported melting point

Task: Could you share which melting point value was measured for O=C1NN=C(c2ccc(Cl)cc2)C2CC12 (configuration not stated) ?
Output: 199 to 200 °C

Task: For `N#Cc1cc(C(Cl)(Cl)Cl)ccc1Cl` , what is its reported melting point?
Output: 66 to 68 °C

Task: Recorded melting point for `CC1(C)CC(=O)Nc2c(CCN3CCN(c4nsc5ccc(F)cc45)CC3)cc(F)cc21` , please?
Output: 191 °C

* * *

measurement-name: melting point

# annotated cases, reported melting point shown
{"compound": "CCCC1=C(C(=O)OCC)C(c2ccccc2Cl)c2cn(C(=O)Nc3ccccc3)nc2N1 (centres undefined)", "measurement-name": "melting point", "test-value": "145 to 147 °C"}
{"compound": "N#CC1CN1C(=O)NS(=O)(=O)c1ccccc1 (centres undefined)", "measurement-name": "melting point", "test-value": "103 to 108 °C"}
{"compound": "CC(C)CCC(=O)NC1(C(=O)NC2N=C(C(C)(C)C)c3ccccc3N(C)C2=O)CCCC1 (centres undefined)", "measurement-name": "melting point", "test-value": "175 to 178 °C"}
{"compound": "O=C(c1c(F)cccc1F)N1COCN(c2ccc(S(=O)C(F)(C(F)(F)F)C(F)(F)F)cc2F)C1=O (centres undefined)", "measurement-name": "melting point", "test-value": "40 to 45 °C"}
{"compound": "CCC(=O)c1ccc2c(Cc3ccccc3)c(CC)oc2c1", "measurement-name": "melting point", "test-value": "86 to 87 °C"}

Task: I'd like to know its melting point. The compound in question is `CC(C)(C)OCCOc1cc(N)c([N+](=O)[O-])cc1I`
Output: 144 to 146 °C

Task: Request the reported melting point associated with `COc1ccc(CCNC(=O)C(=O)NCCCCCCN)cc1OC1CCCC1`
Output: 105 to 110 °C

Task: Give the measured melting point of `CC(C)n1c(=O)nc(-c2ccccc2)c2cc3c(cc21)OCO3` .
Output: 189 to 190 °C

Task: # lookup: melting point of `CN(C)c1cc2c(cc1Cl)NC(=O)CC(c1cccc(-c3csc(CO)n3)c1)=N2`
Output: 176 to 178 °C
